Where these numbers come from: patent US20250361295A1

biological target: T1, human LILRA4 (human, UniProt P59901 24-499); experiment: FACS, 293F-hLILRA4 cells
T1 construct: whole, on cells; also called hLILRA4
T1 sequence (P59901 24-499): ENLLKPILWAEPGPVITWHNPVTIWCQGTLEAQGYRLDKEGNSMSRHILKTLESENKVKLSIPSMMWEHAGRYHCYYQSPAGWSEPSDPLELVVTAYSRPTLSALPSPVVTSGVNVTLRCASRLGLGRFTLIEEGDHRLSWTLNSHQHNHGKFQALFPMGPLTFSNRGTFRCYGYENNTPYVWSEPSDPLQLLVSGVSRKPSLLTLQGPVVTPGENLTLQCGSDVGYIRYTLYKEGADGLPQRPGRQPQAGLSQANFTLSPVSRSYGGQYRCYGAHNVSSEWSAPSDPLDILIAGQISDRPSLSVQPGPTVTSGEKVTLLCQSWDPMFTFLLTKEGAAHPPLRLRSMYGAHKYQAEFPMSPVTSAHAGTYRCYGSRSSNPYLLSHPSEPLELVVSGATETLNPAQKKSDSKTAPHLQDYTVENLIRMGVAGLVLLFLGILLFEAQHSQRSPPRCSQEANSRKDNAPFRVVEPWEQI
Field: MFI. Provide a value for each of the binders that follow.
Answers are plain numbers, in MFI.

Sample answers from the record:
25-G9-G4-C12 (antibody, V domains shown, mouse monoclonal hybridoma antibody) VH: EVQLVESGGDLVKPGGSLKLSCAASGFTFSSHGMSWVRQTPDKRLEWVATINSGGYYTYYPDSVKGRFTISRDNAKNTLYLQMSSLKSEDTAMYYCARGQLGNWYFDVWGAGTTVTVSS VL: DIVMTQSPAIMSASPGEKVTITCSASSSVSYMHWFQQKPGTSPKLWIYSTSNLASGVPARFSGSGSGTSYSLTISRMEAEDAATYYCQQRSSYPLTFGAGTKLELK	22.7
48-E11-H7-B5 (antibody, V domains shown, mouse monoclonal hybridoma antibody) VH: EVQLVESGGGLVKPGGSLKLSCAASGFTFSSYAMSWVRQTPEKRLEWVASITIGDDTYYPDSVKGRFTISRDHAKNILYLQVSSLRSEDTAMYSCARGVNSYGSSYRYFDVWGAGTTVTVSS VL: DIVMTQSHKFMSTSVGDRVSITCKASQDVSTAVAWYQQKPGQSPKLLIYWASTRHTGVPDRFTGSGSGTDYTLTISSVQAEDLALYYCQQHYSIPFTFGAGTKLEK	24.3
26-H9-B9-B7 (antibody, V domains shown, mouse monoclonal hybridoma antibody) VH: EVQRVESGGGLVQPGGSRKLSCAASGFTFSSFGMHWVRQAPEKGLEWVAYISSGSSTIYYADTVKGRFTISRDNPKNTLFLQMTSLRSEDTAMYYCARSDGKGAMDYWGQGTSVTVSS VL: DIVMTQSTSSLSASLGDRVTISCRASQDISNYLNWYQQKPDGTVKLLIYYTSRLHSGVPSRFSGSGSGTDYSLTISNLEQEDIATYFCQQGNTLPWTFGGGTKLEIK	19.4

Next up:
Exercise: May I ask what MFI has been recorded for 7-B4-C1-C9 (antibody, V domains shown, mouse monoclonal hybridoma antibody) VH: EVQLQQSGTELVKPGASVKLSCKASGYTFTNYWMHWVKQRPGQGLEWIGEINPSNGRTNYNEKFKTKATLTVDKSSSTAYMQLSSLTSEDSAVYYCARSTYYGYDWYFDVWGAGTTVTVSS VL: DIVLTQSPSSMYASLGERVTITCKASQDINSYLSWFQQKPGKSPKTLIYRANRLLDGVPSRFSGGGSGQDYSLTISSLEHEDMGIYYCLQCDEFPHTFGGGTKLEIK ?
Solution: 26.2
